For each of the compounds below, state its IC50.
- System: HCT-116
- assay details: MTT assay
- Format: cell-based
- condition info: Homo sapiens; HCT-116, 24 h of treatment
Where a name gives a salt, the structure may show the parent alone.
Value expressed in µM; do not type the unit.

Please tell me: IC50 of CCC(C)C(C(=O)O)N1C(=O)/C(=C/C=C/c2ccc([N+](=O)[O-])o2)SC1=S (stereo not shown) [8b] , system HCT-116?
4.15

# returns recorded IC50 (system: HCT-116) for CC(C)CC(C(=O)O)N1C(=O)/C(=C/C=C/c2ccc([N+](=O)[O-])o2)SC1=S (stereo not shown) [7b]
7.98

Value wanted: IC50 (HCT-116) of entry O=C(O)CCCCCCCCCCN1C(=O)/C(=C/C=C/c2ccc([N+](=O)[O-])o2)SC1=S [15b]
10.5

Give recorded IC50 with HCT-116 for the following compound: O=C(O)C(Cc1ccc(O)cc1)N1C(=O)/C(=C/C=C/c2ccc([N+](=O)[O-])o2)SC1=S (stereo not shown) [11b]
36.1

Form field: IC50 recorded for COc1cccc2c1C(=O)c1c(O)c3c(c(O)c1C2=O)C[C@@](O)(C(=O)CO)C[C@@H]3O[C@H]1C[C@H](N)[C@H](O)[C@H](C)O1 [DOX, Doxorubicin hydrochloride, reference compound] with HCT-116 (enter value)
16.8

Form field - read-out: IC50; system: HCT-116; submitted item: O=C(O)CCCCCN1C(=O)/C(=C/C=C/c2ccc([N+](=O)[O-])o2)SC1=S [14b]
2.11

# get_value(readout= IC50, system= HCT-116) for CC(C)C(C(=O)O)N1C(=O)/C(=C/C=C/c2ccc([N+](=O)[O-])o2)SC1=S (stereo not shown) [5b]
4.21

Form field: IC50 recorded for CCC(C(=O)O)N1C(=O)/C(=C/C=C/c2ccc([N+](=O)[O-])o2)SC1=S (stereo not shown) [3b] with HCT-116 (enter value)
14.7

Give HCT-116 IC50 for CCCC(C(=O)O)N1C(=O)/C(=C/C=C/c2ccc([N+](=O)[O-])o2)SC1=S (stereo not shown) [4b]
7.89

Report IC50 for O=C(O)C(Cc1ccccc1)N1C(=O)/C(=C/C=C/c2ccc([N+](=O)[O-])o2)SC1=S (stereo not shown) [10b] tested on HCT-116.
13.5

API: value(readout= IC50, system= HCT-116, query= CC(C(=O)O)N1C(=O)/C(=C/C=C/c2ccc([N+](=O)[O-])o2)SC1=S (stereo not shown) [2b] )
39

Request: IC50, test system HCT-116, entry O=C(O)C(c1ccccc1)N1C(=O)/C(=C/C=C/c2ccc([N+](=O)[O-])o2)SC1=S (stereo not shown) [9b]
11.7

Form: Entry = O=C(O)CCN1C(=O)/C(=C/C=C/c2ccc([N+](=O)[O-])o2)SC1=S [12b] | System = HCT-116 | IC50 = ____
3.68

Enter reported IC50 observed with HCT-116 for CCCCC(C(=O)O)N1C(=O)/C(=C/C=C/c2ccc([N+](=O)[O-])o2)SC1=S (stereo not shown) [6b]
17.6

Fill in the recorded IC50 for this compound, with HCT-116 as test system: O=C(O)CCCN1C(=O)/C(=C/C=C/c2ccc([N+](=O)[O-])o2)SC1=S [13b]
3.97

Where these numbers come from: paper PMC12655351
